assay: physchem; conditions: pH 4.5, aqueous buffer, kinetic from dmso stock, Solubility (pH 4.5)
Result type: solubility at 24 h (µg/mL)

// known answers, use as guide
# Compound, solubility at 24 h / µg/mL
data = [
    ("CO[C@@H]1CN(c2cccc(-c3cccc(C)c3OCc3ccc4c(c3C)CCN(C3COC3)CC4)n2)CC[C@H]1C(=O)O [Compound 290]", 80),
    ("Cc1ccc(OCc2ccc3c(c2)CCN(C2CCCOC2)C3)c(-c2csc(N3CC[C@@]4(C(=O)O)C[C@H]4C3)n2)c1 (stereo partly shown) [Compound 113]", 36),
    ("Cc1cc(COc2ccccc2-c2cccc(N3CC[C@@]4(C(=O)O)C[C@H]4C3)n2)cc2c1CN(C1CCOCC1)CC2 [Compound 12]", 90),
]

A: CO[C@H]1CN(c2nc(-c3cccc(Cl)c3OCc3ccc4c(c3)[C@@H](C)CN(C3COC3)CC4)cs2)CC[C@H]1C(=O)O [Compound 321]
B: CO[C@H]1CN(c2nc(-c3cc(C)ccc3OCc3ccc4c(c3C)CCN(C3CCOCC3)CC4)cs2)CC[C@H]1C(=O)O [Compound 182]
input: I'm curious whether A or B has the smaller solubility at 24 h number. Which is it? Record your answer as the label of the chosen record.
output: A
(A: 41.5 µg/mL, B: 61 µg/mL)

----------
test: physchem; conditions: pH 2.2, aqueous buffer, kinetic from dmso stock, Solubility (pH 2.2)
Result type: solubility at 24 h (µg/mL)

# Molecule, Value
data = [
    ("CO[C@H]1CN(c2nc(-c3cccc(Cl)c3OCc3ccc4c(c3)CCN(C3CCOCC3)C[C@H]4C)cs2)CC[C@H]1C(=O)O", 109),
    ("Cc1cccc(-c2csc(N3C[C@@H]4C[C@]4(C(=O)O)C3)n2)c1OCc1cc(C#N)c2c(c1)CCN(C1CCOCC1)C2", 110),
    ("Cc1ccc(OCc2ccc3c(c2)CCN(CC2COCCO2)C3)c(-c2csc(N3CC[C@@]4(C(=O)O)C[C@H]4C3)n2)c1 (stereo partly drawn)", 120),
]

----------
test: Human liver microsome (HLM) metabolic stability assay; type: in vitro ADME; conditions: human liver microsomes
Listing of entries alongside the reported Metabolic stability (Qh %), % hepatic blood flow.

Completed entries (count: 2):
# Molecule, Value
records = [
    ("Cc1c(COc2ccccc2-c2ccnc(N3CC[C@@]4(C(=O)O)C[C@H]4C3)n2)ccc2c1CCN(C1CCOCC1)C2 [Compound 185]", "33%"),
    ("CCO[C@@H]1CN(c2nc(-c3cc(C)ccc3OCc3cc4c(c(OC)c3)CN(C3CCOCC3)CC4)cs2)CC[C@@H]1C(=O)O [Compound 229]", "<24%"),
]

As a next step, examine the molecule that follows.
input: I have this molecule here, Cc1cccc(-c2cccc(N3C[C@@H]4C[C@]4(C(=O)O)C3)n2)c1OCc1cc(C#N)c2c(c1)CCN(C1COC1)C2 [Compound 29] , and I need its recorded Metabolic stability (Qh %), % hepatic blood flow.
output: <24%

----------
assay: physchem; details: pH 2.2, aqueous buffer, kinetic from dmso stock, Solubility (pH 2.2)
Result type: solubility at 24 h (µg/mL)

# Molecular string, Unit symbol, solubility at 24 h
data = [
    ("CO[C@@H]1CN(c2cccc(-c3cccc(C)c3OCc3ccc4c(c3C)CCN(C3COC3)C4)n2)CC[C@@H]1C(=O)O", "µg/mL", 130),
    ("CCO[C@@H]1CN(c2nc(-c3cc(C)ccc3OCc3cc(OC)c4c(c3F)CCN(C3CCOCC3)C4)cs2)CC[C@@H]1C(=O)O", "µg/mL", 128),
    ("Cc1ccc(OCc2ccc3c(c2)CCN(C2COC2)CC3)c(-c2csc(N3C[C@@H]4C[C@]4(C(=O)O)C3)n2)c1", "µg/mL", 93),
]
